target or test system: Eubacterium eligens GUS (EeGUS) (Lachnospira eligens)
procedure summary: In vitro inhibition assay (pNPG hydrolysis)
Type: biochemical
cond: pH 6.5; pNPG 900 µM; 1 hour end point; read-out: UNC10201652 (IC50, nM) pH 6.5
result type: IC50 (nM)

mol smiles	result units	observed value
C1CCc2c(c(N3CCOCC3)nc3sc4c(N5CCNCC5)nnnc4c23)C1	nM	1900

###

target or test system: E. coli GUS (EcGUS) (Escherichia coli)
Sequence (P05804 whole entry): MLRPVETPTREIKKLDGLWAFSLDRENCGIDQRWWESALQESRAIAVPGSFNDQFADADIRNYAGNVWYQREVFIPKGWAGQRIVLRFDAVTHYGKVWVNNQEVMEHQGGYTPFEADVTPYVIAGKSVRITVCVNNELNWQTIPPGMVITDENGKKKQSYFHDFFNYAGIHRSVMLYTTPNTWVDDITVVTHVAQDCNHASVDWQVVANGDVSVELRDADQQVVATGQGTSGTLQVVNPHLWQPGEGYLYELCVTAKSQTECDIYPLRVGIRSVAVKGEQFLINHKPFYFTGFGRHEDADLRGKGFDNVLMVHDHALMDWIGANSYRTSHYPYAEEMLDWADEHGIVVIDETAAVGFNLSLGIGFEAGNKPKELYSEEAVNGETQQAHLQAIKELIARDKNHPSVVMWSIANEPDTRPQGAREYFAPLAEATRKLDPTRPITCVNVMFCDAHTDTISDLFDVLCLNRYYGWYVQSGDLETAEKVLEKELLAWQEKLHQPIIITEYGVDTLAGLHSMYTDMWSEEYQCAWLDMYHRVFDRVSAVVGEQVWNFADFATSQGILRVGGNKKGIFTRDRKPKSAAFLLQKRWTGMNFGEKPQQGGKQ
procedure summary: In vitro inhibition assay (pNPG hydrolysis)
Type: biochemical
cond: pH 7.5; pNPG 900 µM; 1 hour end point; read-out: UNC10201652 (IC50, nM) pH 7.5

mol smiles	IC50
C1CCc2c(c(N3CCOCC3)nc3sc4c(N5CCNCC5)nnnc4c23)C1	100 nM

###

target or test system: Eubacterium eligens GUS (EeGUS) (Lachnospira eligens)
Sequence (C4Z6Z2 1-611): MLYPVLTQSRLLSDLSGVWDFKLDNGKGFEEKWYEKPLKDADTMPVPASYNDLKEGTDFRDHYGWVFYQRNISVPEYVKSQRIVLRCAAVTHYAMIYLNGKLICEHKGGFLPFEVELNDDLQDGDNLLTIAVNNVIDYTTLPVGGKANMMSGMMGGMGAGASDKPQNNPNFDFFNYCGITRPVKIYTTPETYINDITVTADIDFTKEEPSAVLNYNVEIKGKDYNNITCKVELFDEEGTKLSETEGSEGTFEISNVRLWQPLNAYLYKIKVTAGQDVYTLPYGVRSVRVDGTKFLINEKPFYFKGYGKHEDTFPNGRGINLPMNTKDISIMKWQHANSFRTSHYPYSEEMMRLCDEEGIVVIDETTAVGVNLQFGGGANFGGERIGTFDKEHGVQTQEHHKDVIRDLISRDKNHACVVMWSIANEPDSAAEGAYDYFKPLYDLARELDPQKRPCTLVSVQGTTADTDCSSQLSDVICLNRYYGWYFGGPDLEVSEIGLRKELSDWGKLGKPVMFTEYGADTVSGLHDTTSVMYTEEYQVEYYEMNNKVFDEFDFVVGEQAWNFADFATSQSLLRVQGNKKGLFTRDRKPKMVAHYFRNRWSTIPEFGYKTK
procedure summary: In vitro inhibition assay (pNPG hydrolysis)
Type: biochemical
cond: pH 7.5; pNPG 900 µM; 1 hour end point; read-out: UNC10201652 (IC50, nM) pH 7.5
result type: IC50 (nM)

mol smiles	target or test system	result type	observed value
C1CCc2c(c(N3CCOCC3)nc3sc4c(N5CCNCC5)nnnc4c23)C1	Eubacterium eligens GUS (EeGUS) (Lachnospira eligens)	IC50	410

###

target or test system: Streptococcus agalactiae GUS (SaGUS) (Streptococcus agalactiae serotype V)
Construct: 6x His; made in house
Sequence (Q8E0N2 whole entry): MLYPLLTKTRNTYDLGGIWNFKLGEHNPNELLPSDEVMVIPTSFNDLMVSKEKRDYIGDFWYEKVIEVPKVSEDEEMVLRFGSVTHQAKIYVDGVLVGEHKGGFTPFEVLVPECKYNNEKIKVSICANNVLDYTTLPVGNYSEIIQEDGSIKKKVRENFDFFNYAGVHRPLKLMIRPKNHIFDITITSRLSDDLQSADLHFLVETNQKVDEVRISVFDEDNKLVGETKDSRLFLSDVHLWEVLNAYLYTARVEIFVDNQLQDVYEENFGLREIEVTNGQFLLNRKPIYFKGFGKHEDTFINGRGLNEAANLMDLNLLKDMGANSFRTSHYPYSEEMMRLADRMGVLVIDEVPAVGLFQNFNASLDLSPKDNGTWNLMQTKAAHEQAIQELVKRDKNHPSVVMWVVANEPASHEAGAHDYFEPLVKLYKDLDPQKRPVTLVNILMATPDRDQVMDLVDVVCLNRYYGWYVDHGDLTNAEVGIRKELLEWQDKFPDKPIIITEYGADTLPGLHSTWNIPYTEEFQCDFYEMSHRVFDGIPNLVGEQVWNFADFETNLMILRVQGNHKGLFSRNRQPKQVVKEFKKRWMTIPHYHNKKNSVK
procedure summary: In vitro inhibition assay (pNPG hydrolysis)
Assay type: biochemical
cond: Inhibitor 1 (IC50, nM) pH 6.5, pH 6.5; pNPG 900 µM

molecule	IC50
CCOc1ccc(NC(=S)N(CCO)Cc2cc3cc(C)cc(C)c3[nH]c2=O)cc1 [Inhibitor 1]	> 25000 nM

###

target or test system: Ruminococcus gnavus GUS (RgGUS) (Mediterraneibacter gnavus, UniProt A0A2N5PVZ8)
Sequence (A0A2N5PVZ8 1-603): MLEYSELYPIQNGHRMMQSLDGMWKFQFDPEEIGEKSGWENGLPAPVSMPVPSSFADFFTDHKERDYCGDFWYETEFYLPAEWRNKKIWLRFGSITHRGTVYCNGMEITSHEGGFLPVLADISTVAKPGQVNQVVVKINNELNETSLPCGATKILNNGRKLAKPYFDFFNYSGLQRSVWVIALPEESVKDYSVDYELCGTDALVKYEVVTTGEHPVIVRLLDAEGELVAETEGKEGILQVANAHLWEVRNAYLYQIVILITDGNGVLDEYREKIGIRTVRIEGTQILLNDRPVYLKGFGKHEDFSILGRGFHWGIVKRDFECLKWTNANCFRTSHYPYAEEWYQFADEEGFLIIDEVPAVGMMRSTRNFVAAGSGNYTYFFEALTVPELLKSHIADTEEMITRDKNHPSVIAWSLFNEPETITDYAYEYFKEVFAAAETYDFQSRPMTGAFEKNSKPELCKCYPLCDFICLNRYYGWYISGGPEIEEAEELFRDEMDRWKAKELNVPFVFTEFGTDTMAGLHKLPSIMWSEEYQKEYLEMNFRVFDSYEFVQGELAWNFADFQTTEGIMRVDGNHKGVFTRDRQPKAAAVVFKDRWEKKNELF
procedure summary: In vitro inhibition assay (pNPG hydrolysis)
Assay type: biochemical
pIC50: −log10 of the molar value.
result type: pIC50

mol smiles	target or test system	result type	observed value
CCOc1ccc(NC(=S)N(CCO)Cc2cc3cc(C)cc(C)c3[nH]c2=O)cc1	Ruminococcus gnavus GUS (RgGUS) (Mediterraneibacter gnavus, UniProt A0A2N5PVZ8)	pIC50	< 4.00

Data credit: paper PMC6351562
